- Tested on: TK-10 renal
- method-notes: NCI tumour cell line growth inhibition, 48 h
Recorded TGI, one value per entry.

INSERT INTO results (compound, system, reported_measurement) VALUES
  ('O=C1NC2(CCCCCC2)C2CCCCCCC12O (stereo not given)', 'TK-10 renal', '> 100 µM'),
  ('CN[C@H](C#Cc1c(F)ccc2c1/C(=C/c1[nH]ccc1OC)C(=O)N2)CO', 'TK-10 renal', '2.25 µM'),
  ('COc1ccc(CNC(=O)NCn2cc(-c3ccccc3)nn2)cc1', 'TK-10 renal', '> 100 µM'),
  ('O=C1NC(=S)N/C1=C\c1ccc(Br)s1', 'TK-10 renal', '> 100 µM'),
  ('NC(=O)c1ccc(I)c(N=O)c1', 'TK-10 renal', '> 100 µM');

Query compound follows.
// field: TGI; key: `O=C(c1ccc(Cl)cc1)N(C(=O)N1CCC(c2ccccc2)CC1)c1ccccc1` ; value = > 100 µM
